Sourced from paper PMC2248166

Target system: HLA B*5802 (Homo sapiens, UniProt P01889, A329T/C349S/D201E/D98Y/E176V/E187L/E204Q/E69T/G107R/I218V/I90N/K202T/L105A/N104I/N87E/Q89R/Q94S/R106L/R155S/R180L/R86G/S101N/S121W/S35A/S48A/V127L/V306I/V36M/Y140S/Y91M)
Format: binding
Parameter: Normalized average relative binding affinity (ARB), HLA B*5802
Numbers only.

// solved cases for Normalized average relative binding affinity (ARB), HLA B*5802 follow
XXDXXXXXX [3064.0043]	0.047
XXXAXXXXX [3064.0061]	0.51
RXXXXXXXX [3064.0015]	0.52

Take each entry in turn and give its Normalized average relative binding affinity (ARB), HLA B*5802.
1. XEXXXXXXX [3064.0024]
2. XXSXXXXXX [3064.0056]
3. XXXCXXXXX [3064.0062]
4. XVXXXXXXX [3064.0038]
5. PXXXXXXXX [3064.0013]

stdout:
[0.066, 0.066, 0.52, 0.12, 0.059]

====

Target system: H-2 K^k (Mus musculus, UniProt P04223)
Assay type: binding
Parameter: Normalized average relative binding affinity(ARB)
Numbers only.

// solved cases for Normalized average relative binding affinity(ARB) follow
XXXXXXXLX [3064.0150]	0.54
XXXXXXXCX [3064.0142]	0.37
XXXXRXXXX [3064.0095]	0.072
XXXXIXXXX [3064.0088]	0.24
XXXXXNXXX [3064.0112]	0.32

Take each entry in turn and give its Normalized average relative binding affinity(ARB).
1. XXXXXXKXX [3064.0129]
2. XXXXXXXAX [3064.0141]
3. XXXXXGXXX [3064.0106]
4. XXXXXXIXX [3064.0128]

stdout:
[0.15, 0.82, 0.60, 0.037]

Take each entry in turn and give its Normalized average relative binding affinity(ARB).
1. XXXXKXXXX [3064.0089]
2. XXXXXXXNX [3064.0152]
3. XXXXXDXXX [3064.0103]

stdout:
1: 0.091; 2: 0.066; 3: 0.37

Take each entry in turn and give its Normalized average relative binding affinity(ARB).
1. XXXXXCXXX [3064.0102]
2. XXXXXXAXX [3064.0121]

stdout:
[0.40, 0.12]

Looking up XXXXCXXXX [3064.0082] , I see its Normalized average relative binding affinity(ARB) listed as 0.095

====

Target system: H-2 D^b (Mus musculus, UniProt P01899)
Assay type: binding
Parameter: Normalized average relative binding affinity(ARB)
Numbers only.

// solved cases for Normalized average relative binding affinity(ARB) follow
XXXXXXXKX [3064.0149]	0.076
XXXXXYXXX [3064.0120]	0.68
XXXWXXXXX [3064.0079]	0.56
XXXXXQXXX [3064.0114]	0.55
XXXRXXXXX [3064.0075]	0.63
XXXXXXXEX [3064.0144]	0.33
XXXXXAXXX [3064.0101]	0.62
XXXXNXXXX [3064.0092]	1.0
XXXIXXXXX [3064.0068]	0.87
XXXXXXXHX [3064.0147]	0.073

Take each entry in turn and give its Normalized average relative binding affinity(ARB).
1. XXXXXXXWX [3064.0159]
2. XXXXDXXXX [3064.0083]
3. XXXHXXXXX [3064.0067]

stdout:
1. 0.13
2. 0.058
3. 0.29
